The reported measurements were obtained from PubChem BioAssay (NCI).

# System: OVCAR-8 ovarian
# Method Summary: NCI tumour cell line growth inhibition, 48 h
Label True for high-side TGI (at or above 20 µM) and False for low-side TGI (below it).

Compound: CCN(CC)C(=O)c1cccc2c(OC)ccc(OC)c12
Tested On: OVCAR-8 ovarian
Class: True
//
Compound: C/C(=C1\C(=O)Nc2ccccc21)c1cccc(/C(C)=C2/C(=O)Nc3ccccc32)n1
Tested On: OVCAR-8 ovarian
Class: True
//
Compound: CCCCCCCCCCCCCOCCOCCOCCCCC(O)CCCCCCCCCC1=C[C@H](C)OC1=O (some centres undefined)
Tested On: OVCAR-8 ovarian
Class: True

q: Textbook exercise: given the entry CCCCCCCCCCCC(c1ccccc1)[N+](C)(C)C (centres undefined) , state whether its TGI is greater than or equal to 20 µM.
a: False

q: Reported TGI reaches at least 20 µM for "CN1CCC2(CC1)C(=O)Nc1cc(NC(=O)c3ccc4c(c3)C[C@@H]3C(C)(C)[C@H](O)[C@H](F)C[C@@]3(C)O4)ccc12" ?
a: True

q: State whether the measured TGI reaches 20 µM, counting equality as reaching it, for "O=C(Nc1ccccc1/C=C/c1n[nH]c2ccccc12)c1ccccc1"
a: False

q: I'd appreciate it if you could say whether "CSC(=Nc1ccccc1)c1c(C)[nH]n(-c2ccccc2)c1=O" has TGI at least equal to 20 µM.
a: True

q: Is it the case that O=[N+]([O-])c1ccc(Cl)c(C2CC(c3cccc4ccccc34)=Nc3ccccc3S2=O)c1 (centres undefined) has TGI reaching or exceeding 20 µM?
a: True

q: # bool: TGI of COc1cccc2c1C(=O)c1c(O)c3c(c(O)c1C2=O)C[C@@](O)(/C(C)=N/NC(=O)c1cccc([N+](=O)[O-])c1)C[C@@H]3OC1CC(N)C(O)C(C)O1 (some centres undefined) >= 20 µM
a: True
